Measured values drawn from ChEMBL document CHEMBL2417369 for this set.

Let's go through some IC50 measurements on Tyrosine-protein kinase ABL1 (Homo sapiens, UniProt P00519) together.
Sequence (P00519 whole entry): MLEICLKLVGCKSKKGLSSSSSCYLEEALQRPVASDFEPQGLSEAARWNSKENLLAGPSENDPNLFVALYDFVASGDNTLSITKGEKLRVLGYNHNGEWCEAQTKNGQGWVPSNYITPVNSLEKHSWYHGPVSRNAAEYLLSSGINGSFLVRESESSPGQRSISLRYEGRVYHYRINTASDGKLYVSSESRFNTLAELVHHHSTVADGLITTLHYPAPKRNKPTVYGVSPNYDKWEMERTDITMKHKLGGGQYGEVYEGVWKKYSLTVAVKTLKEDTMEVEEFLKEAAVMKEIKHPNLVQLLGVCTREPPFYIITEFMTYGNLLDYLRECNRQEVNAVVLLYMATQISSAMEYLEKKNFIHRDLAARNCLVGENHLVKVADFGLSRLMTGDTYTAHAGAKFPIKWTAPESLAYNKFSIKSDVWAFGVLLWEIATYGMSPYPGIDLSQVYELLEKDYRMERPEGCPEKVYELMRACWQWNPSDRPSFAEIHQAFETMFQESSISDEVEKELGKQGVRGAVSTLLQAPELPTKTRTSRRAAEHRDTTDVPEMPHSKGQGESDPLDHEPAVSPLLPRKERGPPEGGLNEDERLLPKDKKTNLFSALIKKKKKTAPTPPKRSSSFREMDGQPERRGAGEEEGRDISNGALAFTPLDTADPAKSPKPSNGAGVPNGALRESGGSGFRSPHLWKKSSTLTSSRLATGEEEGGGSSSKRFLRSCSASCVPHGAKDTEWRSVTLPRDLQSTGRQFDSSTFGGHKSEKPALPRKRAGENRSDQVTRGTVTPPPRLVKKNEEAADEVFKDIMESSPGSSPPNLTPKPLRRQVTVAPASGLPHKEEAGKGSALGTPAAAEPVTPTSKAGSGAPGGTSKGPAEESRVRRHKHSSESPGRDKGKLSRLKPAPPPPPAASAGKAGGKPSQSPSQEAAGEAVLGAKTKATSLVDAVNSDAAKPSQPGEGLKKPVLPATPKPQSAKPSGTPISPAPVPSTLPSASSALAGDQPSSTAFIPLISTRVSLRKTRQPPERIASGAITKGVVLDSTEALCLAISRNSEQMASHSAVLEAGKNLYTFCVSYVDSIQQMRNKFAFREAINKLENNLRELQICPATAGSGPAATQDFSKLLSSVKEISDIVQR
parameter-measured: IC50 (µM)

mol-smiles: c1nc(N2CCC3(CCCCN3)CC2)c2nc[nH]c2n1
system-name: Tyrosine-protein kinase ABL1 (Homo sapiens, UniProt P00519)
measured-result: 126
--
mol-smiles: c1nc(N2CCC3(CCCNC3)CC2)c2nc[nH]c2n1
system-name: Tyrosine-protein kinase ABL1 (Homo sapiens, UniProt P00519)
measured-result: 7

###

- system-name: Tyrosine-protein kinase Lck (Homo sapiens, UniProt P06239)
- Sequence (P06239 2-509 limits assumed): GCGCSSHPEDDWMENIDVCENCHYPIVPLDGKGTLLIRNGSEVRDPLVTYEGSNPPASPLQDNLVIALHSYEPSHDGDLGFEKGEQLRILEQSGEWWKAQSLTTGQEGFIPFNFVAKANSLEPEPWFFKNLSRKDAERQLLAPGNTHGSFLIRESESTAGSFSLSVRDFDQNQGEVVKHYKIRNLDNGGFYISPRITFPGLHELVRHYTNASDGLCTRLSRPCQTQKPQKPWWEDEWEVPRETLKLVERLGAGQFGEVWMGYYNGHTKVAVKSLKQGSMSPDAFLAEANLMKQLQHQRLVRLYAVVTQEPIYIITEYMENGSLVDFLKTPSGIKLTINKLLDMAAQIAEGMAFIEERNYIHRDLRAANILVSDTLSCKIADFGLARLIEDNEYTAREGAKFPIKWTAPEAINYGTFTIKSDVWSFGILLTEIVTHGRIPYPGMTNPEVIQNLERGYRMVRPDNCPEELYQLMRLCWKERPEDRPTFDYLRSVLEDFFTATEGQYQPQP
- protocol-details: Inhibition of LCK (unknown origin) at 30 uM by microfluidic mobility shift assay relative to control

compound: c1nc(N2CCC3(CCCCN3)CC2)c2nc[nH]c2n1
inhibition: 25%
--
compound: c1nc(N2CCC3(CCCCC3)CC2)c2nc[nH]c2n1
inhibition: 35%
--
compound: c1ccc(CC2CCNC3(CCN(c4ncnc5[nH]cnc45)CC3)C2)cc1 (racemic)
inhibition: 60%
--
compound: O=S(=O)(NCCNC/C=C/c1ccc(Br)cc1)c1cccc2cnccc12
inhibition: 22%
--
compound: COC(=O)C1CCC2(CCN(c3ncnc4[nH]cnc34)CC2)NC1 (racemic)
inhibition: 16%
--
compound: O=C(O)C1CCC2(CCN(c3ncnc4[nH]cnc34)CC2)NC1 (racemic)
inhibition: 15%
--
compound: OC1CCC2(CCN(c3ncnc4[nH]cnc34)CC2)NC1 (racemic)
inhibition: 21%
--
compound: O=S(=O)(c1cccc2cnccc12)N1CCC2(CCCNC2)CC1
inhibition: 9%
--
compound: c1nc(N2CCCC3(CCNCC3)C2)c2nc[nH]c2n1
inhibition: 15%
--
compound: c1nc(N2CCCC23CCNCC3)c2nc[nH]c2n1
inhibition: 9%
--
compound: OC1CCNC2(CCN(c3ncnc4[nH]cnc34)CC2)C1 (racemic)
inhibition: 14%
--
compound: O=S(=O)(c1cccc2cnccc12)N1CCCC2(CCCNC2)C1 (configuration not stated)
inhibition: 17%

###

Let's go through some IC50 measurements on Serine/threonine-protein kinase Chk1 (Homo sapiens, UniProt O14757) together.
Sequence (O14757 whole entry): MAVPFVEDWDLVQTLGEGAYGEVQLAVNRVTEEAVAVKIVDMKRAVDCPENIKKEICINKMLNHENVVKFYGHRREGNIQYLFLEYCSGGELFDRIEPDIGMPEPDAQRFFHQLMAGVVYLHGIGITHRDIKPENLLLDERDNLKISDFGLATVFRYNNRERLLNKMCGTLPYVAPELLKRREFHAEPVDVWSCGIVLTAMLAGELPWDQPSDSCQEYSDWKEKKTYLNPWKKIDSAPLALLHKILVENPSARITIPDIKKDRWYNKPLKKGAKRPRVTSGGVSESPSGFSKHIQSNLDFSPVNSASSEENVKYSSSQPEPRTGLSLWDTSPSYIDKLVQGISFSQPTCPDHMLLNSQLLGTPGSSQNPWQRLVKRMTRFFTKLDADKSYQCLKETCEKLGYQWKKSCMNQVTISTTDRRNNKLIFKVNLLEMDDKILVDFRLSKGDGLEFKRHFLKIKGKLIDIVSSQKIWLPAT
parameter-measured: IC50 (µM)

compound: c1nc(N2CCC3(CCCNC3)CC2)c2nc[nH]c2n1
measured-result: 1.8
--
compound: c1nc(N2CCC3(CCCCN3)CC2)c2nc[nH]c2n1
measured-result: 18
--
compound: O=S(=O)(c1cccc2cnccc12)N1CCCC2(CCCNC2)C1 (stereo not drawn)
measured-result: 12.8

###

- system-name: MAP kinase-activated protein kinase 5 (Homo sapiens)
- protocol-details: Inhibition of MAPKAPK5 (unknown origin) at 30 uM by microfluidic mobility shift assay relative to control

molecule: OC1CCC2(CCN(c3ncnc4[nH]cnc34)CC2)NC1 (racemic)
system-name: MAP kinase-activated protein kinase 5 (Homo sapiens)
unit-name: %
inhibition: 30
//
molecule: NC1(Cc2ccccc2)CCN(c2ncnc3[nH]cnc23)CC1
system-name: MAP kinase-activated protein kinase 5 (Homo sapiens)
unit-name: %
inhibition: 40
//
molecule: c1ccc(CC2CCC3(CCN(c4ncnc5[nH]cnc45)CC3)NC2)cc1 (racemic)
system-name: MAP kinase-activated protein kinase 5 (Homo sapiens)
unit-name: %
inhibition: 7
//
molecule: NC1(Cc2ccccc2)CCN(S(=O)(=O)c2cccc3cnccc23)CC1
system-name: MAP kinase-activated protein kinase 5 (Homo sapiens)
unit-name: %
inhibition: 0
//
molecule: c1nc(N2CCC3(CCCCN3)CC2)c2nc[nH]c2n1
system-name: MAP kinase-activated protein kinase 5 (Homo sapiens)
unit-name: %
inhibition: 11
//
molecule: O=S(=O)(c1cccc2cnccc12)N1CCC2(CCCN2)CC1
system-name: MAP kinase-activated protein kinase 5 (Homo sapiens)
unit-name: %
inhibition: 15
//
molecule: OCC1CCC2(CCN(c3ncnc4[nH]cnc34)CC2)NC1 (racemic)
system-name: MAP kinase-activated protein kinase 5 (Homo sapiens)
unit-name: %
inhibition: 43
//
molecule: c1nc(N2CCC3(CCCCC3)CC2)c2nc[nH]c2n1
system-name: MAP kinase-activated protein kinase 5 (Homo sapiens)
unit-name: %
inhibition: 6
//
molecule: c1nc(N2CCCC3(CCNCC3)C2)c2nc[nH]c2n1
system-name: MAP kinase-activated protein kinase 5 (Homo sapiens)
unit-name: %
inhibition: 3
//
molecule: c1nc(N2CCC3(CCCOC3)CC2)c2nc[nH]c2n1
system-name: MAP kinase-activated protein kinase 5 (Homo sapiens)
unit-name: %
inhibition: 9
//
molecule: c1nc(N2CCC3(CCNC3)CC2)c2nc[nH]c2n1
system-name: MAP kinase-activated protein kinase 5 (Homo sapiens)
unit-name: %
inhibition: 41
